Tested on: HCC-2998 colon
Assay: NCI-60 one-dose screen, 48 h
Details: 10 µM
About 83,000 compounds went through this panel and 20% of them were active in at least one assay; those are over-represented in the sample as a whole. Activity calls are given as the source filed them. The calls were made as follows: active = growth percent below 10; inactive = the rest.
Your answer must be one of the following: active, inactive

INSERT INTO measurements (compound, qualitative_label) VALUES
  ('C/C(=N\NC(N)=S)C(C)(C)O', 'inactive'),
  ('COc1ccc(-c2nc(-c3nc4ccc(OC)cc4[nH]3)c3ccccn23)cc1', 'inactive'),
  ('CCN(CC)CCn1c(=N)n(CC(O)c2ccc(Cl)c(Cl)c2)c2ccccc21 (configuration not stated)', 'inactive'),
  ('O=C1/C(=C/c2ccc([N+](=O)[O-])s2)Oc2ccc(Cl)cc21', 'active');

Please turn your attention to the following entry.
Query string: What is the recorded call for this compound in the test? O=S(=O)(NC1c2ccccc2Oc2ccccc21)c1ccccc1
Result string: inactive

* * *

Tested on: MOLT-4 leukemia
Test: NCI-60 one-dose screen, 48 h (100 = growth as untreated, 0 = no growth, -100 = all killed)
Conditions: 10 µM
Compounds without any hit were thinned out: in the full panel of roughly 83,000, 20% have a hit.
Criterion: growth meeting or surpassing 10%. Met: 1.0. Not met: 0.0.

Answered examples (6):
INSERT INTO assay_data (molecule, qualitative_label) VALUES
  ('CC1=CC2OC34COC3CC(OC(=O)C(F)(F)F)C4(C)C2(C)CC1 (stereo unspecified)', 1.0),
  ('Cc1ccc(C(=O)O)c(N)c1C', 1.0),
  ('Cc1ccc(Cl)cc1Nc1nc(C(F)(F)F)ccc1C(=O)N/N=C/c1c(Cl)cccc1Cl', 0.0),
  ('CS(=O)(=O)Nc1ccc(OCc2nnc(-c3ccc(Cl)cc3)o2)c(F)c1', 1.0),
  ('CC(C)(C)CC(C)(C)c1ccc(O)c(Cc2ccc(Cl)cc2Cl)c1', 0.0),
  ('CCc1ccc(-c2nnc(COc3ccc(-c4nc5cc(Cl)c(Cl)cc5[nH]4)cc3OC)o2)cc1', 1.0);

Query string: Check the entry COc1cc(-c2nc3cc(Cl)c(Cl)cc3[nH]2)ccc1OCC(=O)NN : does growth equal or exceed 10%?
Result string: 1.0

Query string: Answer whether growth of C[C@@H]1N=C(c2ccc(Br)cc2)Nc2nc3ccccn3c2C1=O is greater than or equal to 10%.
Result string: 1.0

Query string: Does the reported growth for O=C(NCCCl)c1cc(Cl)cc(Cl)c1 fall at or above the 10% mark?
Result string: 1.0

* * *

Entries and their growth values follow.
Tested on: IGROV1 ovarian
Assay: NCI-60 one-dose screen, 48 h (100 = growth as untreated, 0 = no growth, -100 = all killed)
Conditions: 10 µM
About 83,000 compounds went through this panel and 20% of them were active in at least one assay; those are over-represented in the sample as a whole.
All answers are understood in %, so give the number only.

INSERT INTO measurements (compound, target_system, quantity, measured_number) VALUES
  ('COc1cc(C2C(C#N)=C(c3c[nH]c4ccccc34)Nc3nc(N)[nH]c(=O)c32)cc(OC)c1OC (stereo not drawn)', 'IGROV1 ovarian', 'growth', 80.3),
  ('O=C(OCC1OC(n2cc(C(F)(F)F)c(=O)[nH]c2=O)CC1OC(=O)c1ccc([N+](=O)[O-])cc1)c1ccc([N+](=O)[O-])cc1 (stereo not drawn)', 'IGROV1 ovarian', 'growth', 82.3);

Now for another entry.
Bench note, IGROV1 ovarian: entry Cc1nc2scc(-c3ccc(Cl)cc3)n2c(=O)c1CCN1CCOCC1 , its growth = 79.2
